Test: Rat plasma half-life assay
Format: in vitro ADME
Conditions: 37° C., LC-MS, read-out: Rat Plasma T½ (converted)
Non-standard residues stand in square brackets, D forms with d. No end group written: not given here. Ac6c = NC1(C(=O)O)CCCCC1; Nle = CCCC[C@H](N)C(=O)O; Ac5c = NC1(C(=O)O)CCCC1; Aib = CC(C)(N)C(=O)O
Property: half-life at 0.1 mg/ml; scope: individual substances

substance | half-life at 0.1 mg/ml, h
YAEGTF[Ac6c]SDYSIA[Nle]DKIHQQDFVNWLLAQKGKKNDWKHNI[Ac6c]Q-OH [Example 17, (A6c^7, 41, Nle^14)hGIP(1-42)-OH] | 1.9
YAEGTFISDY[Ac6c]IA[Ac6c]DKIHQQDFVNWLLAQKGKKNDWKHN[Ac6c]TQ-OH [Example 14, (A6c^11, 14, 40)hGIP(1-42)-OH] | 4.8
YAEGTFISDYSI[Aib][Nle]DKIHQQDFVNWLLAQKGKKNDWKHNITQF-OH [Example 9, (Aib^13, Nle^14, Phe^43)hGIP(1-43)-OH] | 1.3
YAEGTFISDY[Ac5c]IAMDKIHQQDFVNWLLAQKGKKNDWKHNITQN-OH [Example 4, (A5c^11, Asn^43)hGIP(1-43)-OH] | 4.1
YAEGTFISDYSI[Aib]MDKIHQQDFVNWLLAQKGKKNDWKHNITQW-OH [Example 12, (Aib^13, Trp^43)hGIP(1-43)-OH] | 2.1
YAEGTFISDY[Ac5c]IAMDKIHQQDFVNWLLAQKGKKNDWKHNITQA-OH [Example 8, (A5c^11, Ala^43)hGIP(1-43)-OH] | 2.3

---

Reported half-life at 0.1 mg/ml values follow for various substances
Test: Rat plasma half-life assay
Format: in vitro ADME
Details: 37° C., LC-MS, read-out: Rat Plasma T½ (converted)
Non-standard residues stand in square brackets, D forms with d. No end group written: not given here. *: point of attachment. Myristoyl = CCCCCCCCCCCCCC(=O)*; 12Ado = NCCCCCCCCCCCC(=O)O; Ac6c = NC1(C(=O)O)CCCCC1; Nle = CCCC[C@H](N)C(=O)O; Orn = NCCC[C@H](N)C(=O)O; Ac5c = NC1(C(=O)O)CCCC1; Aib = CC(C)(N)C(=O)O

substance | u | half-life at 0.1 mg/ml
YAEGTFISDY[Ac6c]IA[Ac6c]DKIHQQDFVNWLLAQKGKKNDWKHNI[Ac6c]Q-OH [Example 11, (A6c^11, 14, 41)hGIP(1-42)-OH] | h | 8.6
YAEGTFISDY[Ac5c]IAMDKIHQQDFVNWLLAQKGKKNDWKHNI[Ac5c]QC-NH2 [Example 33, (A5c^11, 41, Cys^43)hGIP(1-43)-NH2] | h | 6.5
YAEGTFISDY[Ac5c]IAMDKIHQQDFVNWLLAQKGKKNDWKHNITQT-OH [Example 10, (A5c^11, Thr^43)hGIP(1-43)-OH] | h | 2.1
YAEGTFISDY[Ac5c]IAMDKIHQQDFVNWLLAQKGKKNDWKHN[Ac5c]TQ-OH [Example 2, (A5c^11, 40)hGIP(1-42)-OH] | h | 2.7
YAEGTFISDY[Ac5c]IAMDKIHQQDFVNWLLAQKGKKNDWKHNI[Ac5c]Q-OH [Example 1, (A5c^11, 41)hGIP(1-42)-OH] | h | 2.2
YAEGTFISDY[Ac5c]IAMDKIHQQDFVNWLLAQKGCKNDWKHNI[Ac5c]Q-NH2 [Example 31, (A5c^11, 41, Cys^32)hGIP(1-42)-NH2] | h | 16.3
H-YAEGTF[Ac6c]SDYSIAMDKIHQQDFVNWLLAQKGKKN[Orn](Myristoyl)WKHNITQ-OH [Example 18] | h | 16.7
YAEGTFISDY[Ac5c]IAMDKIHQQDFVNWLLAQKGKKNDWKHNITQ[12Ado]-OH [Example 13, (A5c^11, Ado^43)hGIP(1-43)-OH] | h | 18.8
YAEGTFISDYSI[Aib]MDKIHQQDFVNWLLAQKGKKNDWKHN[Ac5c]TQ-OH [Example 7, (Aib^13, A5c^40)hGIP(1-42)-OH] | h | 1.7
YAEGTF[Ac6c]SDYSIAMDKIHQQDFVNWLLAQKGKKNDWKHNI[Ac6c]Q-OH [Example 16, (A6c^7, 41)hGIP(1-42)-OH] | h | 1.3
YAEGTF[Ac6c]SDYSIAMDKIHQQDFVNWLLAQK[Orn](Myristoyl)KKNDWKHNITQ-OH [Example 19] | h | 54.6
YAEGTFISDYSI[Aib][Nle]DKIHQQDFVNWLLAQKGKKNDWKHN[Ac5c]TQ-OH [Example 6, (Aib^13, Nle^14, A5c^40)hGIP(1-42)-OH] | h | 1.9
YAEGTFISDYSI[Aib]MDKIHQQDFVNWLLAQKGKKNDWKHNITQD-NH2 [Example 5, (Aib^13, Asp^43)hGIP(1-43)-NH2] | h | 1.3
